target.of.assay: T1, purified recombinant IFNAR-1 extracellular fragment (human, UniProt P17181 28-436)
T1 construct: extracellular domain; also called soluble IFNAR-1; soluble IFNAR
T1 sequence (looked up): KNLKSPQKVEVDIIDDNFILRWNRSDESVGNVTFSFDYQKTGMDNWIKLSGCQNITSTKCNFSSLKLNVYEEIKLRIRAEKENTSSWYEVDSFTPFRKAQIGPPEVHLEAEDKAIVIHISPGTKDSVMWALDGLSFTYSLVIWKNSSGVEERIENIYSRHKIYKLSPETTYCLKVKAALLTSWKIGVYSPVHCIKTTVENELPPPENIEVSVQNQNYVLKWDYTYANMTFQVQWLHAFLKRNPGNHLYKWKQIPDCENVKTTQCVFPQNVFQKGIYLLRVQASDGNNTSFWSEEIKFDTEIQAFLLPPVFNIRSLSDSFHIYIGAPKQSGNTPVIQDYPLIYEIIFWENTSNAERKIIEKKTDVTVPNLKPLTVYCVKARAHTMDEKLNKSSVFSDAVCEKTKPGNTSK
measurement.protocol: Biacore, maximal association on IFNAR-1 relative to M3K1
As shown below, each of these binders has a reported % activity relative to M3K1 value.
measurement.type: % activity relative to M3K1

binder	result
M3K1 (antibody, V domains shown, also called heavy chain M3 with light chain K1) VH: EVQLLESGGGLVQPGGSLRLSCAFSGFTLSTSGMGIGWVRQAPGKGLEWVAHIWWDDDKYYNPSLKSRFTISRDTSKNTVYLQMNSLRAEDTAVYYCARNYYPYDAWFDYWGQGTLVTVS VL: DIQMTQSPSSLSASVGDRVTITCSASSSINSNHLHWYQQKPGKAPKLLIYRTSILASGVPSRFSGSGSGTSFTLTISSLQPEDFATYYCQQGSNIPFTFGQGTKVEIKR	100%
M3-11 (X = Q) heavy chain with K1 light chain (antibody, V domains shown, Position counted within VH CDR3; also called M3-11 Q) VH: EVQLLESGGGLVQPGGSLRLSCAFSGFTLSTSGMGIGWVRQAPGKGLEWVAHIWWDDDKYYNPSLKSRFTISRDTSKNTVYLQMNSLRAEDTAVYYCARNYYPYDAWFDQWGQGTLVTVS VL: DIQMTQSPSSLSASVGDRVTITCSASSSINSNHLHWYQQKPGKAPKLLIYRTSILASGVPSRFSGSGSGTSFTLTISSLQPEDFATYYCQQGSNIPFTFGQGTKVEIK	73%
M3-11 (X = I) heavy chain with K1 light chain (antibody, V domains shown, Position counted within VH CDR3; also called M3-11 I) VH: EVQLLESGGGLVQPGGSLRLSCAFSGFTLSTSGMGIGWVRQAPGKGLEWVAHIWWDDDKYYNPSLKSRFTISRDTSKNTVYLQMNSLRAEDTAVYYCARNYYPYDAWFDIWGQGTLVTVS VL: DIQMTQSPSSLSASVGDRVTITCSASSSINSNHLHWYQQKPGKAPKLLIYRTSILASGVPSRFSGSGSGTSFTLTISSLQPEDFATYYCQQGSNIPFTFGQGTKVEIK	81%
M3-11 (X = E) heavy chain with K1 light chain (antibody, V domains shown, Position counted within VH CDR3; also called M3-11 E) VH: EVQLLESGGGLVQPGGSLRLSCAFSGFTLSTSGMGIGWVRQAPGKGLEWVAHIWWDDDKYYNPSLKSRFTISRDTSKNTVYLQMNSLRAEDTAVYYCARNYYPYDAWFDEWGQGTLVTVS VL: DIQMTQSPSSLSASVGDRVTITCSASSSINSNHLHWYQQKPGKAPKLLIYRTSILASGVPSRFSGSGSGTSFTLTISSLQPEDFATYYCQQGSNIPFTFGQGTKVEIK	105%
M3-11 (X = F) heavy chain with K1 light chain (antibody, V domains shown, Position counted within VH CDR3; also called M3-11 F) VH: EVQLLESGGGLVQPGGSLRLSCAFSGFTLSTSGMGIGWVRQAPGKGLEWVAHIWWDDDKYYNPSLKSRFTISRDTSKNTVYLQMNSLRAEDTAVYYCARNYYPYDAWFDFWGQGTLVTVS VL: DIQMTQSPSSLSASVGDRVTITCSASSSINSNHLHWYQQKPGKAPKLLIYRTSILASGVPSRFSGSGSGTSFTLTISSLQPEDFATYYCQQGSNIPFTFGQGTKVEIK	93%
M3-11 (X = L) heavy chain with K1 light chain (antibody, V domains shown, the position is counted within CDR3, not on the entry; also called M3-11 L) VH: EVQLLESGGGLVQPGGSLRLSCAFSGFTLSTSGMGIGWVRQAPGKGLEWVAHIWWDDDKYYNPSLKSRFTISRDTSKNTVYLQMNSLRAEDTAVYYCARNYYPYDAWFDLWGQGTLVTVS VL: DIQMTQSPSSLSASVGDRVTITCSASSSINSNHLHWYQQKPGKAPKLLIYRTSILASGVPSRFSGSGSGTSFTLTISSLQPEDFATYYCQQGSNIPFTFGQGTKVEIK	75%
